Below: a set of entries, each annotated with reported growth.
- System: A498 renal
- assay_summary: NCI-60 one-dose screen, 48 h (100 = growth as untreated, 0 = no growth, -100 = all killed)
- protocol_conditions: 10 µM unless noted
About 83,000 compounds went through this panel and 20% of them were active in at least one assay; those are over-represented in the sample as a whole.

compound_string | units_symbol | growth
O=S(=O)(Nc1ccc(Cl)cc1)c1ccc(-c2cnc(C3CC3)o2)cc1 | % | 0.162
COCCNC(=O)c1ccc(-c2nc3ccc4[nH]ncc4c3c3c2CCCC3)cc1 | % | -9.26
COc1ccc(-c2nc(SCC(C)C)nc(N/N=C\c3ccc(F)cc3)c2C#N)cc1 | % | 74.4
N#Cc1cccc(F)c1 | % | 129
